- Test system: Micrococcus luteus
- ASSAY INFO: Antimicrobial activity against Micrococcus luteus ATCC 10240 after 24 hrs by Kirby-Bauer agar diffusion assay
- Assay type: functional

[
  {
    "COMPOUND": "C=C(C)C(C)N(O)c1cccc(CC)n1 (racemic)",
    "diameter of the inhibition zone (DIZ)": "52 mm"
  },
  {
    "COMPOUND": "C=C(C)C(CCC(C)=O)N(O)c1ccccn1 (racemic)",
    "diameter of the inhibition zone (DIZ)": "30 mm"
  },
  {
    "COMPOUND": "C=C(C)C(C)N(O)c1ccc(Cl)cn1 (racemic)",
    "diameter of the inhibition zone (DIZ)": "40 mm"
  },
  {
    "COMPOUND": "C=CCN(O)c1ccccn1",
    "diameter of the inhibition zone (DIZ)": "14 mm"
  },
  {
    "COMPOUND": "CC(C)(C)O[C@@H]1C=CCC[C@H]1N(O)c1ccc(Br)cn1 (racemic)",
    "diameter of the inhibition zone (DIZ)": ">14 mm"
  },
  {
    "COMPOUND": "CC(C)OC1C=C[C@@H](N(O)c2ccc(Cl)cn2)C1 (mixture of isomers)",
    "diameter of the inhibition zone (DIZ)": ">14 mm"
  },
  {
    "COMPOUND": "c1ccc(CNc2ccccn2)cc1",
    "diameter of the inhibition zone (DIZ)": "0 mm"
  },
  {
    "COMPOUND": "ON(Cc1ccccc1)Cc1ccccn1",
    "diameter of the inhibition zone (DIZ)": "0 mm"
  },
  {
    "COMPOUND": "Cc1cccnc1N(O)[C@@H]1CC=C[C@H]1OC(C)C (racemic)",
    "diameter of the inhibition zone (DIZ)": ">14 mm"
  },
  {
    "COMPOUND": "O=C(c1ccccc1)N1OC2C=CC21 (racemic)",
    "diameter of the inhibition zone (DIZ)": "<=14 mm"
  },
  {
    "COMPOUND": "ON(c1ccc(Br)cn1)[C@@H]1CCC=C[C@H]1OCc1ccccc1 (relative stereo)",
    "diameter of the inhibition zone (DIZ)": ">14 mm"
  },
  {
    "COMPOUND": "CC(C)(C)OC1C=C[C@@H](N(O)c2ccc(Br)cn2)C1 (mixture of isomers)",
    "diameter of the inhibition zone (DIZ)": ">14 mm"
  },
  {
    "COMPOUND": "O[C@@H]1C=C[C@@H](N(O)c2ccc(Br)cn2)C1 (racemic)",
    "diameter of the inhibition zone (DIZ)": ">14 mm"
  },
  {
    "COMPOUND": "C=C(CN(O)c1ccccn1)c1ccccc1",
    "diameter of the inhibition zone (DIZ)": "20 mm"
  },
  {
    "COMPOUND": "C=C(C)C(C)N(O)c1cc(C)on1 (racemic)",
    "diameter of the inhibition zone (DIZ)": "21 mm"
  },
  {
    "COMPOUND": "Cc1cc(N(O)[C@H]2CC=C[C@@H]2OC(C)(C)C)no1 (racemic)",
    "diameter of the inhibition zone (DIZ)": ">14 mm"
  },
  {
    "COMPOUND": "O=Nc1ccc(Cl)cn1",
    "diameter of the inhibition zone (DIZ)": "<=14 mm"
  },
  {
    "COMPOUND": "CC(C)O[C@@H]1C=CCC[C@H]1N(O)c1ccc(Br)cn1 (racemic)",
    "diameter of the inhibition zone (DIZ)": ">14 mm"
  },
  {
    "COMPOUND": "O=C(Cc1ccccc1)N1OC2C=CC1CC2 (racemic)",
    "diameter of the inhibition zone (DIZ)": "<=14 mm"
  },
  {
    "COMPOUND": "CO[C@@H]1C=C[C@@H](N(O)C(=O)Cc2ccccc2)CC1 (racemic)",
    "diameter of the inhibition zone (DIZ)": "<=14 mm"
  },
  {
    "COMPOUND": "Brc1ccc(N2OC3C=CC2C3)nc1 (racemic)",
    "diameter of the inhibition zone (DIZ)": "<=14 mm"
  },
  {
    "COMPOUND": "CO[C@H]1C=CCC[C@@H]1Nc1ccc(Br)cn1 (racemic)",
    "diameter of the inhibition zone (DIZ)": "0 mm"
  },
  {
    "COMPOUND": "O=Nc1ccccn1",
    "diameter of the inhibition zone (DIZ)": "<=14 mm"
  },
  {
    "COMPOUND": "Cc1cc(N2OC3C=CC2C3)no1 (racemic)",
    "diameter of the inhibition zone (DIZ)": "<=14 mm"
  }
]

====

- System: Micrococcus luteus
- ASSAY INFO: Antimicrobial activity against Micrococcus luteus ATCC 10240 after 24 hrs by Kirby-Bauer agar diffusion assay
- Type: functional
MEASUREMENT NAME: diameter of the inhibition zone (DIZ)

[
  {
    "COMPOUND": "CC(C)(C)O[C@@H]1C=C[C@@H](N(O)c2ccc(Br)cn2)CC1 (racemic)",
    "VALUE OBSERVED": ">14 mm"
  },
  {
    "COMPOUND": "O=C(Cc1ccccc1)NO [PHENYLACETOHYDROXAMIC ACID]",
    "VALUE OBSERVED": "<=14 mm"
  },
  {
    "COMPOUND": "C=C(C)C(C)(C)N(O)c1ccccn1",
    "VALUE OBSERVED": "33 mm"
  },
  {
    "COMPOUND": "CC(C)(C)O[C@@H]1C=C[C@@H](N(O)C(=O)Cc2ccccc2)C1 (racemic)",
    "VALUE OBSERVED": "<=14 mm"
  },
  {
    "COMPOUND": "C=C(C)C(C)N(O)c1cccc(C)n1 (racemic)",
    "VALUE OBSERVED": "48 mm"
  },
  {
    "COMPOUND": "C=CCO[C@@H]1C=CCC[C@H]1N(O)c1ccc(Br)cn1 (racemic)",
    "VALUE OBSERVED": ">14 mm"
  },
  {
    "COMPOUND": "Cc1cccc(N2OC3C=CC2C3)n1 (racemic)",
    "VALUE OBSERVED": "<=14 mm"
  },
  {
    "COMPOUND": "CC(=O)ON(Cc1ccccc1)c1ccccn1",
    "VALUE OBSERVED": "20 mm"
  },
  {
    "COMPOUND": "CCCN(OCc1ccc(OC)cc1)c1ccccn1",
    "VALUE OBSERVED": "<=14 mm"
  },
  {
    "COMPOUND": "CC(C)(C)O[C@@H]1C=CC[C@H]1N(O)c1ccc(Cl)cn1",
    "VALUE OBSERVED": ">14 mm"
  },
  {
    "COMPOUND": "Cc1cccc(N(O)[C@@H]2C=CC(OC(C)C)C2)n1 (mixture of isomers)",
    "VALUE OBSERVED": ">14 mm"
  }
]

====

- System: Micrococcus luteus
- ASSAY INFO: Antimicrobial activity against Micrococcus luteus ATCC 10240 after 24 hrs by Kirby-Bauer agar diffusion assay
- Assay type: functional

[
  {
    "COMPOUND": "C=C(CCC=C(C)C)C(CO)N(O)c1ccc(Br)cn1 (racemic)",
    "diameter of the inhibition zone (DIZ)": ">14 mm"
  },
  {
    "COMPOUND": "O[C@H]1C=C[C@@H](N(O)c2ccc(Br)cn2)C1 (racemic)",
    "diameter of the inhibition zone (DIZ)": ">14 mm"
  },
  {
    "COMPOUND": "COc1ccc(CON(Cc2cccc(Oc3ccccc3)c2)c2ccccn2)cc1",
    "diameter of the inhibition zone (DIZ)": "<=14 mm"
  },
  {
    "COMPOUND": "CC(C)(C)OC(=O)NO",
    "diameter of the inhibition zone (DIZ)": "<=14 mm"
  },
  {
    "COMPOUND": "ON(Cc1ccc(C(F)(F)F)cc1)c1ccccn1",
    "diameter of the inhibition zone (DIZ)": "16 mm"
  },
  {
    "COMPOUND": "C=C(C)C(C)N(O)c1cc(C)ccn1 (racemic)",
    "diameter of the inhibition zone (DIZ)": "29 mm"
  }
]

====

- Tested on: Micrococcus luteus
- ASSAY INFO: Antimicrobial activity against Micrococcus luteus ATCC 10240 after 24 hrs by Kirby-Bauer agar diffusion assay
- Type: functional
MEASUREMENT NAME: diameter of the inhibition zone (DIZ)

[
  {
    "COMPOUND": "CO[C@@H]1C=CC[C@H]1N(O)c1ccc(Cl)cn1 (racemic)",
    "MEASUREMENT NAME": "diameter of the inhibition zone (DIZ)",
    "VALUE OBSERVED": ">14 mm"
  },
  {
    "COMPOUND": "COc1ccc(CON(C)c2ccccn2)cc1",
    "MEASUREMENT NAME": "diameter of the inhibition zone (DIZ)",
    "VALUE OBSERVED": "<=14 mm"
  },
  {
    "COMPOUND": "CO[C@@H]1C=C[C@@H](N(O)C(=O)OC(C)(C)C)C1 (racemic)",
    "MEASUREMENT NAME": "diameter of the inhibition zone (DIZ)",
    "VALUE OBSERVED": "<=14 mm"
  },
  {
    "COMPOUND": "O[C@@H]1C=CCC[C@H]1N(O)c1ccc(Br)cn1 (racemic)",
    "MEASUREMENT NAME": "diameter of the inhibition zone (DIZ)",
    "VALUE OBSERVED": ">14 mm"
  },
  {
    "COMPOUND": "CC(C)(C)OC(=O)N1OC2C=CC1C2 (racemic)",
    "MEASUREMENT NAME": "diameter of the inhibition zone (DIZ)",
    "VALUE OBSERVED": "<=14 mm"
  },
  {
    "COMPOUND": "Cc1cccc(N(O)[C@@H]2C=C[C@@H](OC(C)(C)C)C2)n1 (relative stereo)",
    "MEASUREMENT NAME": "diameter of the inhibition zone (DIZ)",
    "VALUE OBSERVED": ">14 mm"
  }
]

Provenance of the data: ChEMBL document CHEMBL1914331
